Taken from paper PMC10817097.

Test: Equilibrium surface tension measurements (Wilhelmy plate)
Format: physicochemical
Details: water/air interface, 25 °C, from Gibbs adsorption isotherm
readout: Acmc (surface area per head group at surface saturation)

# item-smiles, result
measured = [
    ("CC(=O)Oc1ccc(/C=C/C(=O)OCCCCCC[P+](c2ccccc2)(c2ccccc2)c2ccccc2)cc1OC(C)=O", "0.84 nm^2"),
    ("CC(=O)Oc1ccc(/C=C/C(=O)OCCCCCCCC[P+](c2ccccc2)(c2ccccc2)c2ccccc2)cc1OC(C)=O", "0.82 nm^2"),
    ("CC(=O)Oc1ccc(/C=C/C(=O)OCCCCCCCCCCCC[P+](c2ccccc2)(c2ccccc2)c2ccccc2)cc1OC(C)=O", "1.33 nm^2"),
    ("CC(=O)Oc1ccc(/C=C/C(=O)OCCCCCCCCCC[P+](c2ccccc2)(c2ccccc2)c2ccccc2)cc1OC(C)=O", "1.02 nm^2"),
]
